- EXPERIMENTAL_SYSTEM: human Cav2.2 (Homo sapiens)
- Sequence (Q00975 whole entry): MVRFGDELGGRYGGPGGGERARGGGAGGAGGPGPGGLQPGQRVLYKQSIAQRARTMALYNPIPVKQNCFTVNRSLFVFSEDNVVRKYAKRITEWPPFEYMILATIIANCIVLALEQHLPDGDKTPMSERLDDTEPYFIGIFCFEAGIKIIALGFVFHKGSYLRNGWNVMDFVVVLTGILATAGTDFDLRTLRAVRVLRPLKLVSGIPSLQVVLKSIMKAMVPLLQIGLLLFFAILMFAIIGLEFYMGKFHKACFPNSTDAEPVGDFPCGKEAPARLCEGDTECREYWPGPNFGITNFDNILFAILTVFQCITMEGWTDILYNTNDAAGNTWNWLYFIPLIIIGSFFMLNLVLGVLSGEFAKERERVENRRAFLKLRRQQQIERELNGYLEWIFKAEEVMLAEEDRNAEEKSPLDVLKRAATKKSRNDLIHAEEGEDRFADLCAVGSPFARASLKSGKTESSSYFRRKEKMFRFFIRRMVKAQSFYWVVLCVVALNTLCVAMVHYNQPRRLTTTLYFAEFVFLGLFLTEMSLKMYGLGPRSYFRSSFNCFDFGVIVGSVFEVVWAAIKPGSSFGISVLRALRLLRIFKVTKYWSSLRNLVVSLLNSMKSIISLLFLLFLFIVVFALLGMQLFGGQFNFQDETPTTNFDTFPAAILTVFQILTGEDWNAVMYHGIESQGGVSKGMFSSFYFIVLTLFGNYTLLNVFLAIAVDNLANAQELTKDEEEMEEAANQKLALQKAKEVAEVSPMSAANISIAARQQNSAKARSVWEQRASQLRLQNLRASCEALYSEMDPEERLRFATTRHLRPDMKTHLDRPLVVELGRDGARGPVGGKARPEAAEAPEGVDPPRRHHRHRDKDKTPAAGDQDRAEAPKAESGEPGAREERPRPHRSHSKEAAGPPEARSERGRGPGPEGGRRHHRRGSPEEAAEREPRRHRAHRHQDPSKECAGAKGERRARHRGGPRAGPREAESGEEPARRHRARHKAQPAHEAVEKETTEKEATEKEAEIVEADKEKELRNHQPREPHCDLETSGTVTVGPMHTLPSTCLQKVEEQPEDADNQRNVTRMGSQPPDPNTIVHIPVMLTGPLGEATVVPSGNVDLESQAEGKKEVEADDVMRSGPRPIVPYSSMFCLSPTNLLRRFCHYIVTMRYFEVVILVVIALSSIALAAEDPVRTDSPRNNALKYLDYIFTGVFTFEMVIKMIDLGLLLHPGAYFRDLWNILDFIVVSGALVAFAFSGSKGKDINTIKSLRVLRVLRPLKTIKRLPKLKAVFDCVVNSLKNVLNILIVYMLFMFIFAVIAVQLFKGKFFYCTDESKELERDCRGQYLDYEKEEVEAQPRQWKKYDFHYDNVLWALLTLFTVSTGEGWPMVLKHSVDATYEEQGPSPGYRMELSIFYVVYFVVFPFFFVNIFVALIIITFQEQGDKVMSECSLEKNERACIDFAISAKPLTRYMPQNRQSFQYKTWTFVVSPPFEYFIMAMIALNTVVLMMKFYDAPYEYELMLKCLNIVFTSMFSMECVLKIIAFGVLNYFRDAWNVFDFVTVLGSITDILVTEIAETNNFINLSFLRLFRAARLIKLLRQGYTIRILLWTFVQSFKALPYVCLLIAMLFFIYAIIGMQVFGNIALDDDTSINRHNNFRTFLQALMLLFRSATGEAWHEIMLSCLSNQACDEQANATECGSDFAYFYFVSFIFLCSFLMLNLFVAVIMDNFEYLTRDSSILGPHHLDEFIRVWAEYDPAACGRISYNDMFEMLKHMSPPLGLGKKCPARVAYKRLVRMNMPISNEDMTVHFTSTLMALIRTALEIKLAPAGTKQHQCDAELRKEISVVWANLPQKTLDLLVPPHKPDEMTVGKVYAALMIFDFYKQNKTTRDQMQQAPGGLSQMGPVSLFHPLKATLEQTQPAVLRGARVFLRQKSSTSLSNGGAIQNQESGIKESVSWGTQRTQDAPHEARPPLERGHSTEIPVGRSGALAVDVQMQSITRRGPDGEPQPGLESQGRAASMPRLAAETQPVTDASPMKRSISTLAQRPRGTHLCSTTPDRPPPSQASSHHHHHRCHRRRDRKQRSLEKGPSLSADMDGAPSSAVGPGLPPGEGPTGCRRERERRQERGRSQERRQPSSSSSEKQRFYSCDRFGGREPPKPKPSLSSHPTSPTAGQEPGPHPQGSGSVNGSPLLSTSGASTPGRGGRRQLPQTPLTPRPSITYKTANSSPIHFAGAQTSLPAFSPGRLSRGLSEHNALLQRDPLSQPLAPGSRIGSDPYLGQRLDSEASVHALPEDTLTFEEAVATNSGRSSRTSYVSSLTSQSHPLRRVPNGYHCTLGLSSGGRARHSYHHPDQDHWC
- Sequence (P54289 25-951 partner limits assumed): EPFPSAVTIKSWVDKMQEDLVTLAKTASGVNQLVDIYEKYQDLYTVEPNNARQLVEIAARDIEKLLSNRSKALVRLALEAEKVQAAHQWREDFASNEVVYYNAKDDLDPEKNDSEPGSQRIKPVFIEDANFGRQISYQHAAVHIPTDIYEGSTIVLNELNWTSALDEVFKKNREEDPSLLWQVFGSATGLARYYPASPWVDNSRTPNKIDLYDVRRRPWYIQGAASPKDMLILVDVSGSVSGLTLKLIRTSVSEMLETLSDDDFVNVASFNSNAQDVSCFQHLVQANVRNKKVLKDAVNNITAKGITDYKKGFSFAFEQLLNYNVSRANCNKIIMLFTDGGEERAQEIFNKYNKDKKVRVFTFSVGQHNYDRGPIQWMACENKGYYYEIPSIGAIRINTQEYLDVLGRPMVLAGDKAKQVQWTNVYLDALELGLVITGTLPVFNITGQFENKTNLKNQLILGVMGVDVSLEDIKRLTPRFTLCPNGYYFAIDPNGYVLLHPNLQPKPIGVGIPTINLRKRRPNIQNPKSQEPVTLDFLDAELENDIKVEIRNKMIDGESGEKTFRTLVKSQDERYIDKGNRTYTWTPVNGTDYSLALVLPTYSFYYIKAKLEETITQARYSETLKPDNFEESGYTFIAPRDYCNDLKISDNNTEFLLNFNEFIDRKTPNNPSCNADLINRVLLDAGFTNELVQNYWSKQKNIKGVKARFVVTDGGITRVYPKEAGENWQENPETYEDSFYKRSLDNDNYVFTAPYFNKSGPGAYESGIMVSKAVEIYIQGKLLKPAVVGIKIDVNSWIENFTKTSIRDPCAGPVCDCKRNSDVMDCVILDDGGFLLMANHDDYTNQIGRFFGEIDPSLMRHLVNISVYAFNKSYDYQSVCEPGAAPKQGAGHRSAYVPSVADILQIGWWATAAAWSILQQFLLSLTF
- Sequence (P54289 952-1103 partner limits assumed): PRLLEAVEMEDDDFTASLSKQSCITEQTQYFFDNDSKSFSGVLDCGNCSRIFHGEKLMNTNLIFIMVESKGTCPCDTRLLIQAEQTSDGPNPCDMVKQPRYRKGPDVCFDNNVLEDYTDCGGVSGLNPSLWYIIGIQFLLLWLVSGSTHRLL
- Sequence (P54284 whole entry partner): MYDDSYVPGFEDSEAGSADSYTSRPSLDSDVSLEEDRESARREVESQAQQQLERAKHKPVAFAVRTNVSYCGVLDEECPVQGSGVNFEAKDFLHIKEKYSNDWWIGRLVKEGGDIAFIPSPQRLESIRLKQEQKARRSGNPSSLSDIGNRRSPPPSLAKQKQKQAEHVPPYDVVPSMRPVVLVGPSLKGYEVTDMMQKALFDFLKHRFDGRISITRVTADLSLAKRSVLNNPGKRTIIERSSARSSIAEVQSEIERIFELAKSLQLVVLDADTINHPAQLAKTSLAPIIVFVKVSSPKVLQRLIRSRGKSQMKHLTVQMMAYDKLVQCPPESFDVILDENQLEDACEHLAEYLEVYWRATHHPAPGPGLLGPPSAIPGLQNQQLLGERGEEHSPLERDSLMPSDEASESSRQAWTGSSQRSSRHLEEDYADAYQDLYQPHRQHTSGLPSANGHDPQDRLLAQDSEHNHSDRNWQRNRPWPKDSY
- ASSAY_SUMMARY: Assessment of calcium channel activity using FLIPR (Ca2+ influx in IMR32 cells)
- SETTINGS: IMR32 cells endogenously expressing human Cav2.2; 60 minute pre-incubation; 2 μM nifedipine; depolarized with 80 mM KCl, 5 mM CaCl2

>  <MOLECULE>
O=C(CN1CCCC(c2ccccc2)(c2ccccc2)C1=O)N1CCc2ccc(C(F)(F)F)cc2C1

>  <IC50 (µM)>
4.44

$$$$
>  <MOLECULE>
O=C(CN1CCCC(c2ccccc2)(c2ccccc2)C1=O)NC1CN(Cc2cccc(C(F)(F)F)c2)C1

>  <IC50 (µM)>
0.94

$$$$
>  <MOLECULE>
O=C(CN1CCNC(c2ccccc2)C1=O)N1CCN(C(c2ccc(F)cc2)c2ccc(F)cc2)CC1 (stereo not shown)

>  <IC50 (µM)>
10.6

$$$$
>  <MOLECULE>
O=C(CN1CCC(c2ccccc2)(c2ccccc2)C1=O)NC(c1ccccc1)C1CC1 (stereo not shown)

>  <IC50 (µM)>
2.1

$$$$
>  <MOLECULE>
O=C(CN1CCC(c2ccccc2)(c2ccccc2)C1=O)N1CCN(C(c2ccccc2)c2ccccc2)C(=O)C1

>  <IC50 (µM)>
1.09

$$$$
>  <MOLECULE>
O=C(CN1CCC(c2ccc(C(F)(F)F)cc2)C1=O)N1Cc2ccc(F)cc2C1 (stereo not shown)

>  <IC50 (µM)>
10.1

$$$$
>  <MOLECULE>
COc1ccc(C2(c3ccc(OC)cc3)CCCN(CCN3CCN(Cc4cc(OC)cc(OC)c4)CC3)C2=O)cc1

>  <IC50 (µM)>
2.3

$$$$
>  <MOLECULE>
O=C1CN(C(c2ccccc2)c2ccccc2)CCN1CCN1CCC(c2ccccc2)(c2ccccc2)C1=O

>  <IC50 (µM)>
2.09

$$$$
>  <MOLECULE>
O=C(CN1CCC(c2ccccc2)(c2ccccc2)C1=O)NCc1ccc(F)cc1

>  <IC50 (µM)>
3.89

$$$$
>  <MOLECULE>
O=C(CN1CCC(c2ccccc2)(c2ccccc2)C1=O)NCc1nccs1

>  <IC50 (µM)>
13.4

$$$$
>  <MOLECULE>
O=C(CN1CCC(c2ccccc2)(c2ccccc2)C1=O)N1Cc2ccc(C(F)(F)F)cc2C1

>  <IC50 (µM)>
2.82

$$$$
>  <MOLECULE>
O=C1N(S(=O)(=O)c2cccc(C(F)(F)F)c2)CCC1(c1ccc(F)cc1)c1ccc(F)cc1

>  <IC50 (µM)>
9.64

$$$$
>  <MOLECULE>
O=C(CN1CCC(c2ccc(F)cc2)C1=O)N1CCc2ccc(Cl)cc2C1 (stereo not shown)

>  <IC50 (µM)>
7.51

$$$$
>  <MOLECULE>
O=C(CN1CCC(c2ccc(F)cc2)(c2ccc(F)cc2)C1=O)N1CC2(CCN(Cc3ccc(C(F)(F)F)cc3)CC2)C1

>  <IC50 (µM)>
0.86

$$$$
>  <MOLECULE>
O=C(CN1CCCC(c2ccccc2)(c2ccccc2)C1=O)N1CCN(C(c2ccccc2)c2ccccc2)CC1

>  <IC50 (µM)>
1.38

$$$$
>  <MOLECULE>
CN1CCN(CC(=O)N2CCN(C(c3ccc(F)cc3)c3ccc(F)cc3)CC2)C(=O)C1c1ccccc1 (stereo not shown)

>  <IC50 (µM)>
4.7

$$$$

Where these numbers come from: patent US8044069B2
